Where these numbers come from: the supplement of paper PMC9170038

Test system: MS2 coat protein
Assay: apparent KD of MS2 coat protein; designed switch direction (-1 OFF switch, 1 ON switch): 1; higher = weaker reporter binding
Assay context: Eterna round: R95; input ligand: none
Note to self: class labels come from recorded apparent KD of MS2 coat protein, ranges listed here: lower (below 70 nM), middle (70 nM to below 400 nM), upper (400 nM or more)

Prompt line: Which category fits this record: UUGCAGUCAGGUGAGGAUAUCAUGAAUUUAACAUGAGGAUCACCCAUGUGCUGCCUUGCAGCAUAUGAGAAGGCACCUGGCUGCU [JL-ss2-3.02 Brourd Mod] (puzzle: Same State 2)
Response line: upper

Prompt line: Which category fits this record: CUAUCUACAGGUUGCAGUGCUCGUCUUAUACAUGAGGAUCACCCAUGUUAUAGCCCGGUGCUUGCGCUGGGCUGAUU [JL ViennaUCT Tearor mod 2] (puzzle: Sensor for hsa-mir-208a)
Response line: lower

Prompt line: Which category fits this record: AGUCCAGCGAAAGCUGGACAAAAGCAUGUACAUGAGGAUCACCCAUGUUCAUGUACAAGCUUUUUGCUCGUUUUAAA [JL mod - D95 - 15] (puzzle: Sensor for hsa-mir-208a)
Response line: upper

Prompt line: Which category fits this record: GUAAGGCAAGCUUUUUUCUCGUAGUGUAAACAUGAGGAUCACCCAUGUGCUCGCCCUGGACCUUUGGAUCGCAGAAA [Tiesmain] (puzzle: Sensor for hsa-mir-208a)
Response line: lower

Prompt line: Which category fits this record: GUUAAACAUGAGGAUCACCCAUGUCAAUGUAGUCGAGGAUAUGGGCAGCUAUGAGGCGUACUAGAAGGCGAAGAGU [Mat - Same State 1 - Mod of JL - D12] (puzzle: Same State 1)
Response line: middle

Prompt line: Which category fits this record: CAGUGCUGUCGAGAGGAUAUGCGGUGAUGGACAUGAGGAUCACCCAUGUUAGCGACAGCGUUACGGCAGAAGGCUCUACCCACUG [Soteed Omei mod 47] (puzzle: Same State 2)
Response line: lower

Prompt line: Which category fits this record: UUUAGUUGCGCGCAGGAUAUGUAUUAAUAUACAUGAGGAUCACCCAUGUGAGACCAAAUAGGUCUGCAGAAGGGCGAAUCGCGAC [Laonerce - 28] (puzzle: Same State 2)
Response line: middle

Prompt line: Which category fits this record: AGUCCAGCCUGAGCUGGACAAAAGCAUGUACAUGAGGAUCACCCAUGUUCAUGUACAAGCUUUUUGCUCGUCUUGCC [salish99_208a_r3_107x] (puzzle: Sensor for hsa-mir-208a)
Response line: upper

Prompt line: Which category fits this record: AUUAAACAUGAGGAUCACCCAUGUCAUCAAAGUCGAGGAUAUGGGCAAAUAAAAUAAGAACCAGAAGGCGAAUAAU [salish99_ss1_r3_073] (puzzle: Same State 1)
Response line: middle

----------
System: MS2 coat protein
Assay: apparent KD of MS2 coat protein, switch OFF state (with FMN for OFF switches, without FMN for ON switches); designed switch direction (-1 OFF switch, 1 ON switch): -1; higher = weaker reporter binding
Assay context: FMN input: 0 or 200 uM; Eterna round: R93 (includes R88 designs)
Please enter 1.0 where apparent KD of MS2 coat protein is greater than or equal to 60 nM, and 0.0 where it is lower.

Prompt line: Identify whether the reported apparent KD of MS2 coat protein of the following sequence is 60 nM or greater: AAGAACUCAGGAUAUACAUGAAAGAAAGAAAAGAAAAGAAAACAUGAGGAUCACCCAUGUAGAAGGGAGAAGAA [EteRNA is fun!]
Response line: 0.0

Prompt line: Identify whether the reported apparent KD of MS2 coat protein of the following sequence is 60 nM or greater: CUCUUGUGAGGAUAUGAAAGAAAAGAAAAGAAAGAAAAGAAUCAGAAGGCACAUGAGGAUCACCCAUGUAAGAA [EteRNA is fun!]
Response line: 1.0
